System: UniProtKB P31648 | Read-out: IC50
metric_name: IC50 (µM)

Sample answers from the record:
>>> numeric_readout("O=C(c1ccccc1F)c1ccc(F)cc1/C=C/OCCN1CCCC(C(=O)O)C1 (stereo not given)")
8.13
>>> numeric_readout("O=C(O)C1CCCN(CCO/C=C/c2ccccc2Cc2ccccc2)C1 (stereo not given)")
4.17

a = O=C(c1ccccc1F)c1cc(F)ccc1/C=C/OCCN1CCCC(C(=O)O)C1 (stereo not given)
b = O=C(c1cccc(F)c1)c1cc(F)ccc1/C=C\OCCN1CCCC(C(=O)O)C1 (stereo not given)
c = O=C(O)[C@@H]1CCCN(CCOCCc2ccccc2Cc2ccccc2)C1
[ask] Order the entries by their reported IC50, beginning at the minimum. Rank the items, then write their labels in that order.
[reply] c, b, a

* * *

Tested on: GABA transporter 3 (mGAT3, slc6a13, Mus musculus)
experimental_protocol: Inhibition of mouse GAT3 expressed in HEK cells assessed as remaining [3H]-GABA uptake at 100 uM after 25 mins by liquid scintillation counting analysis relative to control
condition_summary: HEK293
metric_name: Activity (%)

>>> numeric_readout("O=C(c1ccccc1F)c1cc(F)ccc1/C=C\\OCCN1CCCC(C(=O)O)C1 (stereo unspecified)")
43.5
>>> numeric_readout("O=C(c1ccc(F)cc1)c1ccc(F)cc1/C=C\\OCCN1CCCC(C(=O)O)C1 (stereo unspecified)")
79.5
>>> numeric_readout("O=C(c1ccccc1F)c1ccc(F)cc1/C=C/OCCN1CCCC(C(=O)O)C1 (stereo unspecified)")
57.6
>>> numeric_readout("O=C(c1cccc(F)c1)c1cc(F)ccc1/C=C/OCCN1CCCC(C(=O)O)C1 (stereo unspecified)")
51.5
>>> numeric_readout("O=C(c1ccc(F)cc1)c1cc(F)ccc1/C=C/OCCN1CCCC(C(=O)O)C1 (stereo unspecified)")
68.8
>>> numeric_readout("O=C(O)C1CCCN(CCO/C=C/c2cc(F)ccc2Cc2ccc(F)cc2)C1 (stereo unspecified)")
62
>>> numeric_readout("O=C(O)C1CCCN(CCO/C=C/c2ccc(F)cc2Cc2ccc(F)cc2)C1 (stereo unspecified)")
49.3
>>> numeric_readout("O=C(c1cccc(F)c1)c1ccc(F)cc1/C=C\\OCCN1CCCC(C(=O)O)C1 (stereo unspecified)")
83.6
>>> numeric_readout("O=C(c1ccc(F)cc1)c1cc(F)ccc1/C=C\\OCCN1CCCC(C(=O)O)C1 (stereo unspecified)")
59.8
>>> numeric_readout("O=C(O)C1CCCN(CCO/C=C/c2cc(F)ccc2Cc2cccc(F)c2)C1 (stereo unspecified)")
59.3
>>> numeric_readout("O=C(c1ccccc1)c1ccccc1/C=C\\OCCN1CCCC(C(=O)O)C1 (stereo unspecified)")
59.8

* * *

experimental_protocol: cells
Format: cell-based
condition_summary: HEK293
metric_name: IC50 (µM)

Sample answers from the record:
>>> numeric_readout("O=C(O)C1CCCN(CCO/C=C/c2ccccc2Cc2ccccc2)C1 (stereo not given)")
31.6
>>> numeric_readout("O=C(O)C1CCCN(CCO/C=C\\c2ccc(F)cc2Cc2ccccc2F)C1 (stereo not given)")
60.3

a = O=C(O)C1CCCN(CCO/C=C\c2cc(F)ccc2Cc2ccccc2F)C1 (stereo not given)
b = O=C(O)C1CCCN(CCO/C=C/c2cc(F)ccc2Cc2ccc(F)cc2)C1 (stereo not given)
c = O=C(O)[C@@H]1CCCN(CCC=C(c2ccccc2)c2ccccc2)C1
[ask] Order the records by IC50, with each subsequent value no larger than the one before. Rank the items, then write their labels in that order.
[reply] c, b, a
(c: 275 µM, b: 93.3 µM, a: 49 µM)
